All figures here come from ChEMBL document CHEMBL3885861.

In this section we review reported Bas values for a set of compounds.
# Species on record: Rattus norvegicus
# Experiment notes: Open TG-GATES - Regimen: Single
# Assay type: toxicity, organism-based, Sprague-Dawley
# Set-up: regimen Single, gender Male, age 6 weeks
# Condition: in vivo, po, 0 mg/kg, 3 h, tissue Blood, route gavage, dose level Control
Reply with just the number (in %).

Recorded Bas, per entry:
CNCCC(Oc1ccc(C(F)(F)F)cc1)c1ccccc1.Cl (stereo not given) [FLUOXETINE HYDROCHLORIDE] ... 0
CS(=O)(=O)Nc1ccc([N+](=O)[O-])cc1Oc1ccccc1 [NIMESULIDE] ... 0
Cc1cnc(NC(=O)C2=C(O)c3ccccc3S(=O)(=O)N2C)s1 ... 0.4
COc1ccc(Cl)cc1C(=O)NCCc1ccc(S(=O)(=O)NC(=O)NC2CCCCC2)cc1 [GLYBURIDE] ... 0

Shift focus to the following entry.
Input: Can you share its Bas? I mean this compound: C=CCO
Output: 0
